Collected LD50 at 720 h values appear next to each entry.
assayExplanation: Acute toxicity (LD50, Behrens-Karber method)
Assay type: in vivo, ICR mice
conditionDescription: mouse, in vivo, ip, mortality during 30 days
I only need the number, in mg/kg, no unit after it.

Example entries begin here.
{"compound": "CO[C@H]1O[C@H](CN(CCO)C(=O)N(CCCl)N=O)[C@@H](O)[C@H](O)[C@H]1O [Compound 6MCαGHE, reference compound]", "LD50 at 720 h [mg/kg]": 90}
{"compound": "CCCCO[C@H]1O[C@H](CN(CCC)C(=O)N(CCCl)N=O)[C@@H](O)[C@H](O)[C@H]1O", "LD50 at 720 h [mg/kg]": 325}
{"compound": "COCCN(C(=O)N(CCCl)N=O)[C@H]1[C@H](OC2CCCCC2)OC[C@H](O)[C@@H]1O", "LD50 at 720 h [mg/kg]": 520}
{"compound": "CCCCN(C[C@H]1O[C@H](OC2CCCCC2)[C@H](O)[C@@H](O)[C@H]1O)C(=O)N(CCCl)N=O", "LD50 at 720 h [mg/kg]": 630}

Entry CC(C)CO[C@H]1O[C@H](CO)[C@@H](N(C(=O)N(CCCl)N=O)C2CCCCC2)[C@H](O)[C@@H]1O — recorded LD50 at 720 h = 550

Memo: CC(C)CO[C@H]1O[C@H](CN(CC2CCCO2)C(=O)N(CCCl)N=O)[C@@H](O)[C@H](O)[C@H]1O (stereo partly drawn) , reported LD50 at 720 h: 620

Value of measured LD50 at 720 h for the entry CC(C)(C)N(C[C@H]1O[C@H](OCCN2CCOCC2)[C@H](O)[C@@H](O)[C@@H]1O)C(=O)N(CCCl)N=O : 530

So, CCOCCN(C(=O)N(CCCl)N=O)[C@@H]1[C@@H](O)[C@@H](OC2CCCCC2)OC[C@H]1O ? Its LD50 at 720 h was 540

# compound COCC(C)O[C@H]1O[C@H](CN(CC(C)C)C(=O)N(CCCl)N=O)[C@@H](O)[C@@H](O)[C@@H]1O (stereo partly drawn) ; its LD50 at 720 h = 580

The reported LD50 at 720 h of the compound Cc1ccc(CN(C[C@H]2O[C@H](OC3CCCCC3)[C@H](O)[C@@H](O)[C@@H]2O)C(=O)N(CCCl)N=O)cc1 was 545

Measured LD50 at 720 h of CCCCCCN(C[C@H]1O[C@H](OC2CCCCC2)[C@H](O)[C@@H](O)[C@H]1O)C(=O)N(CCCl)N=O : 580

The compound CC(C)CN(C[C@H]1O[C@H](OCC2CCCO2)[C@@H](O)[C@@H](O)[C@@H]1O)C(=O)N(CCCl)N=O (stereo partly drawn) showed LD50 at 720 h equal to 600

###

Parameter Therapeutic ratio TR: see the listing below.
System: Leukemia L1210
assayExplanation: Activity against Leukemia L1210, intraperitoneal, increase in life span of mice
Type: in vivo, female mice (BDF1 family)
conditionDescription: ip; O.D./ILS30
I'd appreciate a reply containing only the number, no unit.

Example results:
{"molecule": "O=NN(CCCl)C(=O)N(CCC1CCCC1)C1C(OC2CCCCC2)OC(CO)C(O)C1O (centres unmarked) [Compound 67]", "Therapeutic ratio TR": 28.6}
{"molecule": "CC(C)CN(C[C@H]1O[C@@H](OCCN2CCOCC2)[C@H](O)[C@@H](O)[C@@H]1O)C(=O)N(CCCl)N=O [Compound 199]", "Therapeutic ratio TR": 50.0}
{"molecule": "O=NN(CCCl)C(=O)N(CC1CCCO1)[C@H]1[C@H](OC2CCCCC2)OC[C@H](O)[C@@H]1O (some centres unmarked) [Compound 156]", "Therapeutic ratio TR": 61.2}
{"molecule": "COc1ccc(CO[C@H]2O[C@H](CN(CC(C)C)C(=O)N(CCCl)N=O)[C@@H](O)[C@H](O)[C@H]2O)cc1 [Compound 51]", "Therapeutic ratio TR": 36.4}
{"molecule": "C=C(C)CN(C(=O)N(CCCl)N=O)[C@H]1[C@@H](OCCCC)O[C@H](CO)[C@@H](O)[C@@H]1O [Compound 56]", "Therapeutic ratio TR": 31.6}

The molecule COc1ccc(CN(C[C@H]2O[C@H](OC3CCCCC3)[C@H](O)[C@@H](O)[C@@H]2O)C(=O)N(CCCl)N=O)cc1 [Compound 48] showed Therapeutic ratio TR equal to 36.6

The molecule listed as CCOCCO[C@H]1O[C@H](CN(CC(C)C)C(=O)N(CCCl)N=O)[C@H](O)[C@H](O)[C@H]1O [Compound 114] has a reported Therapeutic ratio TR of 62.9

Summary for this molecule, CC(C)CO[C@H]1O[C@H](CN(Cc2ccco2)C(=O)N(CCCl)N=O)[C@@H](O)[C@H](O)[C@H]1O [Compound 24] : Therapeutic ratio TR is 58.1
